All values here come from ChEMBL document CHEMBL1136894.

- METHOD NOTES: Lipophilicity, log K by HPLC
- Format: physicochemical
Form field: log K (one value per entry).
Could you respond with only the numeric value?

Below: 2 compounds and their reported log K.
structure_smiles=O=C(N[C@H](Cc1ccccc1)C(=O)Oc1ccc(Cl)cc1C(=O)Nc1ccc(Cl)c(Cl)c1)OCc1ccccc1 readout_label="log K" measured=1.303
structure_smiles=CC(C)[C@@H](NC(=O)OCc1ccccc1)C(=O)Oc1ccc(Cl)cc1C(=O)Nc1cccc(Cl)c1 readout_label="log K" measured=0.8954

Could you share which log K value was measured for O=C(N[C@@H](Cc1ccccc1)C(=O)Oc1ccc(Cl)cc1C(=O)Nc1cccc(Cl)c1)OCc1ccccc1 ?
1.0465

Could you share which log K value was measured for C[C@@H](NC(=O)OCc1ccccc1)C(=O)Oc1ccc(Cl)cc1C(=O)Nc1ccc(Br)cc1 ?
0.7527

Could you share which log K value was measured for O=C(N[C@H](Cc1ccccc1)C(=O)Oc1ccc(Cl)cc1C(=O)Nc1ccc(Br)cc1)OCc1ccccc1 ?
1.1267

Could you share which log K value was measured for C[C@H](NC(=O)OCc1ccccc1)C(=O)Oc1cc(Cl)ccc1C(=O)Nc1ccc(Cl)cc1 ?
0.6337

Could you share which log K value was measured for C[C@H](NC(=O)OCc1ccccc1)C(=O)Oc1ccc(Cl)cc1C(=O)Nc1cccc(Cl)c1 ?
0.6995

Could you share which log K value was measured for C[C@@H](NC(=O)OCc1ccccc1)C(=O)Oc1ccc(Cl)cc1C(=O)Nc1ccc(Cl)c(Cl)c1 ?
0.938

Could you share which log K value was measured for CC(C)[C@@H](NC(=O)OCc1ccccc1)C(=O)Oc1ccc(Cl)cc1C(=O)Nc1ccc(Cl)c(Cl)c1 ?
1.1559
